# Protocol description: Acyl group migration (rearrangement) of pro-drug in DMSO-d6/buffer solution monitored by 19F-NMR
# Format: physicochemical
# Assay setup: pH 7, 40° C., time 0 hr
Value type: O-acyl pro-drug (% present) (%)
API: value field is a number in %; no unit string.

Illustrative cases are given below, each with its answer.
CCCN(CCC)C(=O)c1cc(C(=O)N(Cc2cccc(C(F)(F)F)c2)C[C@@H](O)[C@@H](N)Cc2cc(F)cc(F)c2)cc(-c2ncco2)c1.Cl = 0
CCCN(CCC)C(=O)c1cc(C(=O)O[C@H](CNCc2cccc(C(F)(F)F)c2)[C@@H](N)Cc2cc(F)cc(F)c2)cc(-c2ncco2)c1.Cl.Cl = 100
C#Cc1cccc(C2(NC[C@@H](OC(=O)c3cc(C(=O)N(CCC)CCC)cc(-c4ncco4)c3)[C@@H](N)Cc3cc(F)cc(F)c3)CC2)c1 = 100
CCCN(CCC)C(=O)c1cc(C(=O)N(Cc2cccc(CC)c2)C[C@@H](O)[C@@H](N)Cc2cc(F)cc(F)c2)cc(-c2ncco2)c1.Cl = 0
CCCN(CCC)C(=O)c1cc(C(=O)O[C@H](CNCc2cccc(CC)c2)[C@@H](N)Cc2cc(F)cc(F)c2)cc(-c2ncco2)c1.Cl.Cl = 100

Let us move to another entry and its O-acyl pro-drug (% present).
The measured O-acyl pro-drug (% present) associated with "CCCN(CCC)C(=O)c1cc(C(=O)O[C@H](CNC2(c3cccc(CC)c3)CC2)[C@@H](N)Cc2cc(F)cc(F)c2)cc(-c2ncco2)c1.Cl.Cl" reads 100
